Origin of the recorded values: patent US12122779B2

- Target under test: recombinant human Muscarinic M1 receptor (Homo sapiens, UniProt P11229)
- Sequence (P11229 whole entry): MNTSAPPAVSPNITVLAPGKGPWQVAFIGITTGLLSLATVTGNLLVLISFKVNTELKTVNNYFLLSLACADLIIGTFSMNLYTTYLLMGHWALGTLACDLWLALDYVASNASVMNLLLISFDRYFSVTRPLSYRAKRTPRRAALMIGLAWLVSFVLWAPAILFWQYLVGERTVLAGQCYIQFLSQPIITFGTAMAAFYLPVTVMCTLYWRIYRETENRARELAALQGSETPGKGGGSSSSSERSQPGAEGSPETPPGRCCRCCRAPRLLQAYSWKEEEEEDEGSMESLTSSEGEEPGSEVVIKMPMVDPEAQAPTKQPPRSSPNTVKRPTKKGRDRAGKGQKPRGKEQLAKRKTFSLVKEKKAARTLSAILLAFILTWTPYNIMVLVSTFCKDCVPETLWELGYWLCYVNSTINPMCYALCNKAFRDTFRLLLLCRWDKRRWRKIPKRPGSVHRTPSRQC
- Assay explanation: Allosteric potency EC50 for muscarinic M1 receptor, CHO pCRE-Luc reporter cell-based assay with EC20 of acetylcholine
- Cond: CHO cells, luciferase activity, in presence of EC20 of acetylcholine, 4 hours
Property: EC50 (nM)

P: CC(C)(O)CNC(=O)c1cc(Cc2ccc(-c3cccnc3)cc2)c2cccn2n1
Q: CC(C)C(CO)NC(=O)c1cc(Cc2ccc(Br)cc2)c2cccn2n1 (stereo not drawn)
R: O=C(N[C@H]1CCCC[C@@H]1O)c1cc(Cc2ccc(Cl)cc2)c2cccn2n1
(Q) Re-order the entries listed above so their EC50 values fall from first to last. Field: ranking. Enter the labels in the order requested.
(A) Q, P, R
(Q: 1900 nM, P: 1170 nM, R: 555 nM)

A: CCC(CO)NC(=O)c1cc(Cc2ccc(-c3cnn(C)c3)cc2)c2cccn2n1 (stereo not drawn)
B: Cn1cc(-c2ccc(Cc3cc(C(=O)NCC(C)(C)O)nn4cccc34)cc2)cn1
(Q) Problem: Given the entries A and B , determine which has the lower reported EC50. Which one? Tell me its label.
(A) B
(B: 336 nM, A: 1150 nM)

I: O=C(N[C@H]1CCCC[C@@H]1O)c1cc(Cc2ccc(Br)cc2)c2cccn2n1
II: O=C(NC1CCOCC1)c1cc(Cc2ccc(-c3ccncc3)cc2)c2cccn2n1
(Q) Between I and II , whose recorded EC50 is greater? Which one? Tell me its label.
(A) II
(II: 1550 nM, I: 344 nM)

----------
- Assay explanation: Rodent pharmacokinetic study
- Assay type: in vivo, Male Wistar rats
- Cond: male, Wistar, plasma; rat, intravenous (bolus), 1 mg/kg
Property: AUC(0-t) (ng·h/mL)

Cn1cc(-c2ccc(Cc3cc(C(=O)NCC4(O)CCCCC4)nn4cccc34)cc2)cn1 | 359

1: O=C(N[C@H]1CCCC[C@@H]1O)c1cc(Cc2ccc(-c3cccnc3)cc2)c2cccn2n1 (stereo in doubt)
2: Cn1cc(-c2ccc(Cc3cc(C(=O)NC4CCOCC4)nn4cccc34)cc2)cn1
(Q) Problem: Given the entries 1 and 2 , determine which has the lower reported AUC(0-t). Which one? Tell me its label.
(A) 1
(1: 1130 ng·h/mL, 2: 8200 ng·h/mL)

----------
- Assay explanation: Rodent brain penetration study
- Assay type: in vivo, Male Wistar rats
- Cond: male, Wistar, brain and plasma, po; rat, 3 mg/kg p.o., brain-plasma ratio; read-out: Single dose Rat Brain Penetration (Cb/Cp) at 3 mg/kg, p.o.
Property: Kp

These recorded examples may help you get a feel for the data.
Cn1cc(-c2ccc(Cc3cc(C(=O)NCC4(O)CCCCC4)nn4cccc34)cc2)cn1 | 0.38
CC(C)(O)CNC(=O)c1cc(Cc2ccc(-c3cccnc3)cc2)c2cccn2n1 | 0.31
O=C(NC1CCOCC1)c1cc(Cc2ccc(Cl)cc2)c2cccn2n1 | 3.26
Cn1cc(-c2ccc(Cc3cc(C(=O)N[C@H]4CCOC[C@@H]4O)nn4cccc34)cc2)cn1 (stereo in doubt) | 0.15
O=C(N[C@H]1CCCC[C@@H]1O)c1cc(Cc2ccccc2)c2cccn2n1 | 1.42

a: Cn1cc(-c2ccc(Cc3cc(C(=O)NCC(C)(C)O)nn4cccc34)cc2)cn1
b: Cc1cncc(-c2ccc(Cc3cc(C(=O)N[C@H]4CCCC[C@@H]4O)nn4cccc34)cc2)c1 (stereo in doubt)
(Q) Problem: Given the entries a and b , determine which has the lower reported Kp. Which one? Tell me its label.
(A) b
(b: 0.17, a: 0.26)
